Test: Terminal half life in rat at 3 mg/kg, iv
Format: ADME, organism-based
Parameters: dose 3 mg/kg, route intravenous
Conditions: in vivo, read-out: beta t1/2 (converted)
OUTCOME_MEASURE: half-life (min)
Just the number in min, nothing appended.

Request: Reported half-life for COc1ccc2c(c1)NC1(CCN(C(=O)c3ccc(OC)c(N(C)C)c3)CC1)c1cccn1-2 : what is it?
Response: 174

* * *

Assay: Mean residence time in rat at 10 mg/kg, po
Type: ADME, organism-based
Set-up: dose 10 mg/kg, route oral
Details: in vivo
OUTCOME_MEASURE: MRT (h)
Just the number in h, nothing appended.

Request: Reported MRT for COc1ccc2c(c1)NC1(CCN(C(=O)c3ccc(OC)c(N(C)C)c3)CC1)c1cccn1-2 : what is it?
Response: 4.7
